This section presents binders with their documented Kd values.
- System Tested: T1, hen egg lysozyme (hen, UniProt P00698 19-147)
- T1 construct: Soluble monovalent antigen; Biotinylated for YSD titration; unlabelled analyte in SPR and titrant in ITC; also called HEL
- T1 sequence (P00698 19-147): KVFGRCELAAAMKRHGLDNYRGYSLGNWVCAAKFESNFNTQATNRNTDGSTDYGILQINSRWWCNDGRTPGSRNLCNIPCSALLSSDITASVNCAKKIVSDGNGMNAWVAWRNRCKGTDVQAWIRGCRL
- Experiment Description: SPR (BIAcore T100), biotinylated yeast-secreted VLR on NeutrAvidin, antigen as analyte
Just the number please, in nM, no unit attached.

The measured Kd associated with VLRB.2DMut.12 (other) ACPSQCSCSGTTVDCSGKSLASVPTGIPTTTQVLYLYDNQITKLEPGVFDRLTQLTRLDLDNNQLTVLPAGVFDKLTQLTQLSLNDNQLKSIPRGAFDNLKSLTHIWLLNNPWDCACSDILYLSRWISQHPWLVFGYLNLDHDSARCSGTNTPVRAVTEASTSPSKCP reads 4.3

The measured Kd associated with VLRB.HEL.2D (other, also called VLRB.2D; wild-type VLRB.2D) ACPSQCSCSGTTVDCSGKSLASVPTGIPTTTQVLYLYDNQITKLEPGVFDRLTQLTRLDLDNNQLTVLPAGVFDKLTQLTQLSLNDNQLKSIPRGAFDNLKSLTHIWLLNNPWDCACSDILYLSRWISQHPGLVFGYLNLDPDSARCSGTNTPVRAVTEASTSPSKCP reads 455

The measured Kd associated with VLRB.2DMut.15 (other) ACPSQCSCSGTTVDCSGKSLASVPTGIPITTQVLYLYDNQITKLEPGVFDRLTQLTRLDLDNNQLTVLPAGVFDKLTQLTQLSLNVNQLKSIPRGAFDNLKSLTHIWLLNNPWDCACSDILYLSRWISQHPGLVFGYLNLYPDSARCSGTNTPVRAVTEASTSPSKCP reads 20.2

The measured Kd associated with VLRB.2DMut.13 (other) ACPSQCSCSGTTVDCSGKSLASVPTGIPTTTQVLYLYDNRITKLEPGVFDRLTQLTRLDLDNNQLTVLPAGVFDKLTQLTQLSLNDNQLKSIPRGAFDNLRSLTHIWLLNNPWDCACSDILYLSRWISQHPWLVFGYLNLDHDSARCSGTNTPVRAVTKASTSPSKCP reads 55.1
